In this section we review reported pIC50 values for a set of compounds.
# TARGET_OF_ASSAY: SphK1 (Homo sapiens, UniProt Q9NYA1)
# Sequence (Q9NYA1 9-364 limits assumed): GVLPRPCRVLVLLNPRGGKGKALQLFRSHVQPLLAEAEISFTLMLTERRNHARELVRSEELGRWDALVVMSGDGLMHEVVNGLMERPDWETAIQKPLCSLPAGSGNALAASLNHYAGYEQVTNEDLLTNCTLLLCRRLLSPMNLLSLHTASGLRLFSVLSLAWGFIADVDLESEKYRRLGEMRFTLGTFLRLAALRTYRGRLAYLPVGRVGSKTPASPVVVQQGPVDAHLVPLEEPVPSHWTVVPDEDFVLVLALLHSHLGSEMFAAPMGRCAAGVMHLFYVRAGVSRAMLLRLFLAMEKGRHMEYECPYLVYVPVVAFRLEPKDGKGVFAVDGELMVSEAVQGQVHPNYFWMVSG
pIC50: −log10 of the molar value.

Example cases with answers are listed next.
COMPOUND | READOUT_LABEL | OBS_VALUE
CC1(C)CCC(C)(C)c2cc(-c3ncnc(N4CCC(N5CCCC(O)C5)CC4)n3)ccc21 (stereo not drawn) | pIC50 | 6.00 to 7.00
CC1(C)CCCc2cc(-c3cccc(N4CCN(CCCCO)CC4)n3)ccc21 | pIC50 | < 6.00
CC1(C)CC(C)(C)c2cc(-c3cccc(N4CCN(CCCCO)CC4)n3)ccc21 | pIC50 | 6.00 to 7.00
CC1(C)CCC(C)(C)c2cc(-c3cccc(N4CCC(N5CCCC(O)C5)CC4)n3)ccc21 (stereo not drawn) | pIC50 | 6.00 to 7.00
CC1(C)CCC(C)(C)c2cc(-c3cccc(N4CCNCC4)c3)ccc21 | pIC50 | 6.00 to 7.00
CC1(C)CCC(C)(C)c2cc(-c3ncnc(N4CCC(N5CCC(N)C5)CC4)n3)ccc21 (stereo not drawn) | pIC50 | 6.00 to 7.00
CC1(C)CCC(C)(C)c2cc(-c3cc(N4CCN(CCCCO)CC4)ccn3)ccc21 | pIC50 | 6.00 to 7.00
CC1(C)CCC(C)(C)c2cc(-c3ccnc(N4CCNCC4)c3)ccc21 | pIC50 | 6.00 to 7.00
CC1(C)CC(C)(C)c2cc(-c3cccc(N4CCNCC4)n3)ccc21 | pIC50 | 6.00 to 7.00
CC1(C)CCC(C)(C)c2cc(-c3ncnc(N4CCC(N)CC4)n3)ccc21 | pIC50 | > 7.00

Name the reported pIC50 value associated with the compound CC1(C)CCC(C)(C)c2cc(-c3ccnc(N4CCNCC4)n3)ccc21
6.00 to 7.00

What about this compound? CC1(C)CCC(C)(C)c2cc(-c3ncnc(N4CCC(NCCCCO)CC4)n3)ccc21
> 7.00

Try this compound too: CC1(C)CCC(C)(C)c2cc(-c3ncnc(N4CCN(CCCCO)CC4)n3)ccc21
> 7.00
